Molecular target: Metabotropic glutamate receptor 2 (Homo sapiens, UniProt Q14416)
Sequence (Q14416 whole entry): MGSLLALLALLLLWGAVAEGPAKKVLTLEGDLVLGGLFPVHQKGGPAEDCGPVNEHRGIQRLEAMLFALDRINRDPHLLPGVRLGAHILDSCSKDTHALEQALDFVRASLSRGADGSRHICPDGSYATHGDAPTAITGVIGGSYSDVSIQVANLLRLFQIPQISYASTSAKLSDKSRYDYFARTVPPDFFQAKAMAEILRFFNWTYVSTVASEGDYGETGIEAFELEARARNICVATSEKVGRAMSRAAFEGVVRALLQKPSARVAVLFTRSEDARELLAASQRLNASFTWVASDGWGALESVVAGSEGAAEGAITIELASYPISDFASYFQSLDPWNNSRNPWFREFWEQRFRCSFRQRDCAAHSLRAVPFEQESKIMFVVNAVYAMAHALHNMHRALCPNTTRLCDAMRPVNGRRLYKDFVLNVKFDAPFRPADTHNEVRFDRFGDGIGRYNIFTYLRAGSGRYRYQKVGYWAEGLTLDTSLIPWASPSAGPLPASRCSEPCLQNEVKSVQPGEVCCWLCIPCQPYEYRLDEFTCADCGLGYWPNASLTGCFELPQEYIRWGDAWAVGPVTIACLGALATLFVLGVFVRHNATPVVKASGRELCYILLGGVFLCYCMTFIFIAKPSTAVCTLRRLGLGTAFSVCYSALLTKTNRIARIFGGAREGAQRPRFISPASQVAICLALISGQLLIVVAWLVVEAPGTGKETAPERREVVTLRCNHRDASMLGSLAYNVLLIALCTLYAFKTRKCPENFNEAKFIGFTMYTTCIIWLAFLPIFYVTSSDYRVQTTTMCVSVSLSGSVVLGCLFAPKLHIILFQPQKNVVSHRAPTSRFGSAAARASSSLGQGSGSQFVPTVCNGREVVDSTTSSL
Assay: Displacement of [3H]-JNJ46281222 from human metabotropic glutamate receptor 2 expressed in CHOK1 cell membranes after 60 mins by liquid scintillation counting method
quantityMeasured: Ki (nM)
# value in nM; strip the unit string

Input line: Given "CC(C)C(=O)c1ccc(OCc2ccc(CNC(=O)c3cn(C)cn3)cc2)c(C(F)(F)F)c1O" , state its recorded Ki.
Output line: 79.4

// next entry
Input line: Which Ki is reported for this compound? "N#Cc1c(N2CCC(c3ccccc3)CC2)ccn(CC2CC2)c1=O"
Output line: 26.3

* * *

Target: Metabotropic glutamate receptor 2 (Homo sapiens, UniProt Q14416)
pKd: −log10 of the molar value.
Decide by pKd: equal to or exceeding 8 means y, less means n.

Input line: Can "FC(F)(F)c1c(-c2ccc(CNC3CCOCC3)c(Cl)c2)ccn2c(CC3CC3)nnc12" be said to have pKd at or above 8?
Output line: n

Input line: Reported pKd at or above 8? "Clc1cc(-c2ccn3c(CC4CC4)nnc3c2Cl)ccc1NC1CCOCC1"
Output line: n

Input line: Hello, I need to know if "FC(F)(F)c1c(-c2ccc(NC3CCOCC3)c(Cl)c2)ccn2c(CC3CC3)nnc12" has measured pKd not below 8. Thanks!
Output line: y

Input line: State whether the measured pKd reaches 8, counting equality as reaching it, for "CCOCc1nnc2c(Cl)c(-c3ccc(Oc4ccc(C)nc4C)c(F)c3)ccn12"
Output line: n

Input line: Threshold query (pKd >= 8) on "COc1ccc(CNc2ccc(-c3ccn4c(CC5CC5)nnc4c3C(F)(F)F)cc2)cn1"
Output line: y

Input line: Given the entry "Cc1ccc(Oc2ccc(-c3ccn4c(CC5CC5)nnc4c3Cl)cc2Cl)c(C)n1" , answer whether its pKd meets or surpasses 8.
Output line: y

Please look at the following compound next.
Input line: Dear colleague, could you confirm whether "Fc1cc(-c2ccn3c(CC4CC4)nnc3c2Cl)ccc1Oc1ccnc(C2CC2)c1" has pKd at or above 8?
Output line: n
